Source: the DeepSol protein solubility set

- PROTOCOL DETAILS: soluble on expression in E. coli; label from the status in PepcDB or PDB records
READOUT KIND: soluble on expression in E. coli

SEQ STRING	READOUT KIND	DATA VALUE
MGSDKIHHHHHHMASISIRCPSCSATEGVVRNGKSTAGHQRYLCSHCRKTWQLQFTYTASQPGTHQKIIDMAMNGVGCRASARIMGVGLYTVLRHLKNSAESVTSRIQPGSDVIVCAEMDEHWGYVGAKSRQRWLFYAYDRIRRTVVAHVFGERTLATLERLLSLLSAFEVVVWMTDGCPLYESRLKGKLHVISKRYTQRIERHNLNLRQHLARLVRKSLSFSKSVELHDKAIGHYLNIKHYQ	soluble on expression in E. coli	not soluble
GPGSMTDRLTAEDVFYELSTIRDPERPDCTLADLDVVAMNRCRVEYIESSADFQSLRGQGCNDSGKPSVVVKVILQPTVPHCSLMEFICLCVYVRLREVFSLSNNAKFDITLVDGSHVRQRELEKQVADKERLAAAMEDKALLQEVERHINCE	soluble on expression in E. coli	soluble
MTIYTCTLNLAIDLFIETEELVPFVVNRTKEDDIQANGKGVNVSLILKMLGIDNTALGVKAGFTGNYVEDYLKEKEITTDFIEVAGTTRINVFTKVTQDQKEYKLVNKGPKLSEEHVQRFLKKISELRKGDYLCVSGSLPQGVSPSILIEISRICFEKQVFLILDSSYEEILDCLPYQPFLLKPNEEELQEWFHTEVQTKDDYIFYGQELLKRGAKNILLSLGSEGALFMNNEKVLSGNSPTGMVVNTACSGDAMLGTFLAGWHQGLSLEKNLKRSIAAGSSTAFRKGLTDFSDVQELEQQIKIQEEE	soluble on expression in E. coli	not soluble
MGSDKIHHHHHHMSSIIAALTYFFKEVLVFVSYVKNNAFPQPLSKEEERHYLKRMAEGDEEARNRLIEHNLRLVAHIVKKFENTREHTEDLISIGTIGLIKAIESFSEGKGTKLATYAARCIENEILMHLRALKKVKKDVSLHDPIGTDKEGNEITLIDVLQEDSEDIADSIQLKMEKKQIYEYIHVLDDREKEVIVGRFGLDLEEERTQREIAKELGISRSYVSRIEKRALMKLFHEFYKHNHGKG	soluble on expression in E. coli	not soluble
MQFEKMITEGSNTASAEIDRVSTLEMCRIINDEDKTVPLAVERVLPDIAAAIDVIHAQVSGGGRLIYLGAGTSGRLGILDASECPPTYGVKPGLVVGLIAGGEYAIQHAVEGAEDSREGGVNDLKNINLTAQDVVVGIAASGRTPYVIAGLEYARQLGCRTVGISCNPGSAVSTTAEFAITPIVGAEVVTGSSRMKAGTAQKLVLNMLSTGLMIKSGKVFGNLMVDVVATNEKLHVRQVNIVKNATGCSAEQAEAALIACERNCKTAIVMVLKNLDAAEAKKRLDQHGGFIRQVLDKELEHHHHHH	soluble on expression in E. coli	soluble

IN: Report soluble on expression in E. coli for MVDQQDTFAEYFKNWYIFYKKPKVSKVTLNRYQYTYNVINEYFGNKLLKDITRANYQKFIVKYGQNHSPNTMKMINNCIKACVKNAVYDEEIKKDFTYNIELISNRDNVVQLEHHHHHH please.
OUT: soluble
